Test: in vivo
Details: dog, po, 5 mg/kg
Listed next: entries and their corresponding concentration at 24 h.
Please respond with the number in ng/mL and leave the unit unwritten.

CS(=O)(=O)c1ccc(-n2nc(C(F)F)cc2-c2ccc(F)cc2)nc1    329

Query: concentration at 24 h; subject: CS(=O)(=O)c1ccc(-n2nc(C(F)(F)F)cc2-c2ccccc2)nc1
77

Also check CS(=O)(=O)c1ccc(-n2nc(C(F)(F)F)cc2-c2ccc(F)cc2)nc1
134

====

Experiment: in vivo
Conditions: dog, plasma, po, 5 mg/kg
Listed next: entries and their corresponding AUC.
Please respond with the number in ng·h/mL and leave the unit unwritten.

Worked cases, AUC given:
CS(=O)(=O)c1ccc(-n2nc(C(F)(F)F)cc2-c2ccc(F)cc2)nc1    4820
Cc1ccc(-c2cc(C(F)(F)F)nn2-c2ccc(S(N)(=O)=O)cc2)cc1 [CELECOXIB]    3100

Query: AUC; subject: CS(=O)(=O)c1ccc(-n2nc(C(F)(F)F)cc2-c2ccccc2)nc1
4280

Also check CS(=O)(=O)c1ccc(-n2nc(C(F)F)cc2-c2ccc(F)cc2)nc1
7650

====

Experiment: in vivo
Conditions: dog, po, 5 mg/kg
Condition met means recorded half-life is 20 h or above; Condition not met means it is below 20 h.

CS(=O)(=O)c1ccc(-n2nc(C(F)F)cc2-c2ccccc2)nc1    Condition met
CS(=O)(=O)c1ccc(-n2nc(C(F)F)cc2-c2ccc(F)cc2)nc1    Condition not met
Cc1ccc(-c2cc(C(F)(F)F)nn2-c2ccc(S(N)(=O)=O)cc2)cc1    Condition not met
CS(=O)(=O)c1ccc(-n2nc(C(F)(F)F)cc2-c2ccc(F)cc2)nc1    Condition not met

Read the next record carefully.
# check: half-life of CS(=O)(=O)c1ccc(-n2nc(C(F)(F)F)cc2-c2ccccc2)nc1 is greater than or equal to 20 h
Condition not met

====

Assay: in vivo
Conditions: dog, plasma, po, 5 mg/kg
OBSERVED_PROPERTY: Cmax (ng/mL)
Please respond with the number in ng/mL and leave the unit unwritten.

Cc1ccc(-c2cc(C(F)(F)F)nn2-c2ccc(S(N)(=O)=O)cc2)cc1 [CELECOXIB]    540

Query: Cmax; subject: CS(=O)(=O)c1ccc(-n2nc(C(F)(F)F)cc2-c2ccc(F)cc2)nc1
540

Also check CS(=O)(=O)c1ccc(-n2nc(C(F)(F)F)cc2-c2ccccc2)nc1
611

Also check CS(=O)(=O)c1ccc(-n2nc(C(F)F)cc2-c2ccccc2)nc1
1090

Also check CS(=O)(=O)c1ccc(-n2nc(C(F)F)cc2-c2ccc(F)cc2)nc1
509

====

Assay: in vivo
Conditions: dog, po, 5 mg/kg
Listed next: entries and their corresponding Tmax.

Worked cases, Tmax given:
CS(=O)(=O)c1ccc(-n2nc(C(F)F)cc2-c2ccccc2)nc1    1.5 h
CS(=O)(=O)c1ccc(-n2nc(C(F)(F)F)cc2-c2ccc(F)cc2)nc1    0.8 h
CS(=O)(=O)c1ccc(-n2nc(C(F)(F)F)cc2-c2ccccc2)nc1    0.8 h

Query: Tmax; subject: CS(=O)(=O)c1ccc(-n2nc(C(F)F)cc2-c2ccc(F)cc2)nc1
1.3 h
